- Tested on: KRAS-mutant PDC tumor spheroid with HUVEC/MSC, viability
- EXPERIMENT_NOTES: Anticancer human tumor 327498-153-R-J2-PDC patient-derived uterine carcinosarcoma cell line growth inhibition [KRAS2]
- APPLIED_CONDITIONS: curve of first compound; second compound 0.316 µM

[
  {
    "COMPOUND": "CCN1CCN(Cc2ccc(Nc3ncc(F)c(-c4cc(F)c5nc(C)n(C(C)C)c5c4)n3)nc2)CC1 + CC1OCC2(CCN(c3cnc(Sc4ccnc(N)c4Cl)c(N)n3)CC2)C1N",
    "LIMIT_SIGN": "<",
    "IC50 [nM]": 3.16
  },
  {
    "COMPOUND": "CC(=O)Nc1cccc(-n2c(=O)n(C3CC3)c(=O)c3c(Nc4ccc(I)cc4F)n(C)c(=O)c(C)c32)c1 + COc1cc2nc(C)nc(NC(C)c3cc(N)cc(C(F)(F)F)c3)c2cc1OC1CCOC1",
    "LIMIT_SIGN": "=",
    "IC50 [nM]": 2.62
  },
  {
    "COMPOUND": "Cn1ncnc1[C@H]1c2n[nH]c(=O)c3cc(F)cc(c23)N[C@@H]1c1ccc(F)cc1 + CC1OCC2(CCN(c3cnc(Sc4ccnc(N)c4Cl)c(N)n3)CC2)C1N",
    "LIMIT_SIGN": "=",
    "IC50 [nM]": 1.14
  },
  {
    "COMPOUND": "CCN1CCN(Cc2ccc(Nc3ncc(F)c(-c4cc(F)c5nc(C)n(C(C)C)c5c4)n3)nc2)CC1 + CNCc1ccccc1-c1csc(C(C)Nc2nc(C)nc3cc(OC)c(OC)cc23)c1",
    "LIMIT_SIGN": "=",
    "IC50 [nM]": 13.1
  },
  {
    "COMPOUND": "CN(C)C/C=C/C(=O)Nc1cc2c(Nc3ccc(F)c(Cl)c3)ncnc2cc1O[C@H]1CCOC1 + CC1OCC2(CCN(c3cnc(Sc4ccnc(N)c4Cl)c(N)n3)CC2)C1N",
    "LIMIT_SIGN": ">",
    "IC50 [nM]": 100
  }
]

====

- Tested on: KRAS-mutant PDC tumor spheroid with HUVEC/MSC, viability
- EXPERIMENT_NOTES: Anticancer human tumor 327498-153-R-J2-PDC cell line growth inhibition [KRAS2]; active means viability on the fitted dose curve at most 10% of control; inactive means the rest;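 also: spheroids exposed to agents for seven days before reading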
- APPLIED_CONDITIONS: second compound 3.16 µM; first compound 0.0316 µM
Possible outcomes: active, inactive

[
  {
    "COMPOUND": "Cn1ncnc1[C@H]1c2n[nH]c(=O)c3cc(F)cc(c23)N[C@@H]1c1ccc(F)cc1 + C=CC(=O)N1CCN(c2nc(=O)n(-c3c(C)ccnc3C(C)C)c3nc(-c4c(O)cccc4F)c(F)cc23)C(C)C1",
    "LABEL_VALUE": "inactive"
  },
  {
    "COMPOUND": "CCNC(=O)CC1N=C(c2ccc(Cl)cc2)c2cc(OC)ccc2-n2c(C)nnc21 (stereo unspecified) + COc1cc2nc(C)nc(NC(C)c3cc(N)cc(C(F)(F)F)c3)c2cc1OC1CCOC1",
    "LABEL_VALUE": "inactive"
  },
  {
    "COMPOUND": "COc1cc(Nc2ncc3c(n2)-c2ccc(Cl)cc2C(c2c(F)cccc2OC)=NC3)ccc1C(=O)O + CC1OCC2(CCN(c3cnc(Sc4ccnc(N)c4Cl)c(N)n3)CC2)C1N",
    "LABEL_VALUE": "active"
  },
  {
    "COMPOUND": "COc1cc2nccc(Oc3ccc(NC(=O)C4(C(=O)Nc5ccc(F)cc5)CC4)cc3)c2cc1OC + CNCc1ccccc1-c1csc(C(C)Nc2nc(C)nc3cc(OC)c(OC)cc23)c1",
    "LABEL_VALUE": "active"
  },
  {
    "COMPOUND": "CC(=O)OC12COC1CC(O)C1(C)C(=O)C(O)C3=C(C)C(OC(=O)C(O)C(NC(=O)OC(C)(C)C)c4ccccc4)CC(O)(C(OC(=O)c4ccccc4)C21)C3(C)C (stereo unspecified) + COc1cc2nc(C)nc(NC(C)c3cc(N)cc(C(F)(F)F)c3)c2cc1OC1CCOC1",
    "LABEL_VALUE": "active"
  },
  {
    "COMPOUND": "CC(=O)Nc1cccc(-n2c(=O)n(C3CC3)c(=O)c3c(Nc4ccc(I)cc4F)n(C)c(=O)c(C)c32)c1 + C=CC(=O)N1CCN(c2nc(OCC3CCCN3C)nc3c2CCN(c2cccc4cccc(C)c24)C3)CC1CC#N",
    "LABEL_VALUE": "active"
  },
  {
    "COMPOUND": "COC(=O)c1ccc2c(C(=Nc3ccc(N(C)C(=O)CN4CCN(C)CC4)cc3)c3ccccc3)c(O)[nH]c2c1 + COc1cc2nc(C)nc(NC(C)c3cc(N)cc(C(F)(F)F)c3)c2cc1OC1CCOC1",
    "LABEL_VALUE": "inactive"
  },
  {
    "COMPOUND": "Cn1nccc1Nc1nccc(-c2cc3c(s2)C(C)(C)N(CCN2CCOCC2)C3=O)n1 + COc1cc2nc(C)nc(NC(C)c3cc(N)cc(C(F)(F)F)c3)c2cc1OC1CCOC1",
    "LABEL_VALUE": "inactive"
  },
  {
    "COMPOUND": "COc1cc(Nc2ncc3c(n2)-c2ccc(Cl)cc2C(c2c(F)cccc2OC)=NC3)ccc1C(=O)O + COc1cc2nc(C)nc(NC(C)c3cc(N)cc(C(F)(F)F)c3)c2cc1OC1CCOC1",
    "LABEL_VALUE": "inactive"
  },
  {
    "COMPOUND": "CCN1CCN(Cc2ccc(Nc3ncc(F)c(-c4cc(F)c5nc(C)n(C(C)C)c5c4)n3)nc2)CC1 + CC1OCC2(CCN(c3cnc(Sc4ccnc(N)c4Cl)c(N)n3)CC2)C1N",
    "LABEL_VALUE": "inactive"
  },
  {
    "COMPOUND": "CC(=O)Nc1cccc(-n2c(=O)n(C3CC3)c(=O)c3c(Nc4ccc(I)cc4F)n(C)c(=O)c(C)c32)c1 + CC1OCC2(CCN(c3cnc(Sc4ccnc(N)c4Cl)c(N)n3)CC2)C1N",
    "LABEL_VALUE": "inactive"
  }
]
